- Tested on: PC-3 prostate
- METHOD_DESCRIPTION: NCI tumour cell line growth inhibition, 48 h
RECORDED_METRIC: TGI

Query (compound): COc1cccc(N/C(C)=C2/CCOC2=O)c1 ; field requested: TGI
> 10 µM

Query (compound): Oc1ccc2ccccc2c1CCc1c(O)ccc2ccccc12 ; field requested: TGI
26.9 µM

Query (compound): COc1ccc(C=Nc2ccc(-c3nc4ccccc4s3)cc2)cc1OC ; field requested: TGI
69.9 µM

Query (compound): Nc1nc(N)c2c(n1)NC(c1sc(Cl)nc1Cl)CC(c1ccccc1)=N2 (centres undefined) ; field requested: TGI
24 µM

Query (compound): Cc1nc2cn3c(c2c(=O)[nH]1)CCCCC3 ; field requested: TGI
> 100 µM

Query (compound): COc1ccc2[nH]c3cc4c(=O)c5cc(OC)ccc5[nH]c4cc3c(=O)c2c1 ; field requested: TGI
> 100 µM

Query (compound): COC(=O)C1OC(O[C@H]2CC[C@]3(C)[C@H]4CC=C5[C@@H]6CC(C)(C)CC[C@]6(C(=O)OC)CC[C@@]5(C)[C@]4(C)CC[C@H]3C2(C)C)C(O)C(O)C1O (some centres undefined) ; field requested: TGI
28.7 µM

Query (compound): N#C/C(=C\c1ccc(O)c(O)c1)C(=O)NCc1ccc(C(F)(F)F)cc1 ; field requested: TGI
> 100 µM

Query (compound): COc1ccccc1N1CCN(CCCCNC(=O)c2ccc([N+](=O)[O-])o2)CC1 ; field requested: TGI
39.8 µM

Query (compound): CC/C=C\C[C@H]1C/C=C2/C(=O)C=C[C@H]2C/C=C\CCCC(=O)O1 ; field requested: TGI
12.1 µM

Query (compound): COc1ccccc1-n1cnc(N)c1C(=O)c1cc(OC)c(OC)c(OC)c1 ; field requested: TGI
> 100 µM

Query (compound): CCOC(=O)/C(=C/CC/C(C)=C/CC/C(C)=C/CCc1ccoc1)CC(=O)N1CCCCC1 ; field requested: TGI
17.9 µM

Query (compound): COC(=O)c1cc(-c2ccc3ccccc3c2)[nH]c(=O)c1C#N ; field requested: TGI
> 100 µM

Query (compound): CN1C(=O)c2ccccc2C(O)(c2ccccc2)C1(O)c1ccccc1 (centres undefined) ; field requested: TGI
> 100 µM

The measured values listed here are drawn from PubChem BioAssay (NCI).
